system-under-test: UniProt:P20292
Sequence (P20292 whole entry): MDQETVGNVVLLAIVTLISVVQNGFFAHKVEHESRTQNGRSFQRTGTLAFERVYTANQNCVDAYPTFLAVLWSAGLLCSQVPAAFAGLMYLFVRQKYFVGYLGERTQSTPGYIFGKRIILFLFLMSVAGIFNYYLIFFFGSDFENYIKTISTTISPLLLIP
assay: Inhibition of FLAP in A23187-stimulated human neutrophils assessed as reduction in 5-LO product formation preincubated for 15 mins followed by A23187 and arachidonic acid addition and measured after 10 mins by UV based RP-HPLC analysis
pIC50: −log10 of the molar value.
measurement-label: pIC50

| molecule | system-under-test | pIC50 |
| --- | --- | --- |
| CC(C)Cc1ccc(C(C)c2nc3cc(-c4nnn[nH]4)ccc3n2Cc2ccccc2Cl)cc1 (stereo not given) | UniProt:P20292 | 6.49 |
| CC(C)Cc1ccc(C(C)c2nc3c(CCC(=O)O)cccc3n2Cc2ccccc2Cl)cc1 (stereo not given) | UniProt:P20292 | 6.72 |
| CC(C)Cc1ccc(C(C)c2nc3cc(-c4n[nH]c(=O)o4)ccc3n2Cc2ccccc2Cl)cc1 (stereo not given) | UniProt:P20292 | 7.00 |

(a) N#Cc1ccc2c(c1)nc(CCc1ccc(-c3ccc(N)nc3)cc1)n2Cc1ccccc1Cl
(b) CC(C)Cc1ccc(C(C)c2nc3cc(C(N)=S)ccc3n2Cc2ccccc2Cl)cc1 (stereo not given)
-- ask Hey, between a and b which has a smaller measured pIC50? Refer to your chosen item by its label in the answer.
-- reply a

###

system-under-test: UniProt:Q16873
Sequence (Q16873 whole entry): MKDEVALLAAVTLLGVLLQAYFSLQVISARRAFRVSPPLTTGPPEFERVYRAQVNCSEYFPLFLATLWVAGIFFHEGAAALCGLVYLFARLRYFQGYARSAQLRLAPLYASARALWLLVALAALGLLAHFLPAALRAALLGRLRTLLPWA
assay: Inhibition of LTC4 synthase in LPS/fMLP-stimulated human monocytes assessed as decrease in cys-LT formation pre-incubated with LPS for 30 mins and later stimulated with fMLP for 10 mins by ELISA
Format: cell-based
measurement-label: IC50 (nM)
Just the number in nM, nothing appended.

-- ask For the compound shown here, CC(C)Cc1ccc(C(C)c2nc3cc(CCC(=O)O)ccc3n2Cc2ccccc2Cl)cc1 (stereo unspecified) , give the reported IC50.
-- reply 30

###

system-under-test: Arachidonate 5-lipoxygenase-activating protein (Homo sapiens) (UniProt P20292)
Sequence (whole entry): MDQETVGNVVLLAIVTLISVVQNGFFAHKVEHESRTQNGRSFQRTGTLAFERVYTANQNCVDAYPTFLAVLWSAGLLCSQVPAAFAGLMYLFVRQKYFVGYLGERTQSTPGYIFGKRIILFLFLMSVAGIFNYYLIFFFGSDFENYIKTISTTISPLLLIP
assay: Inhibition of FLAP in A23187-stimulated human neutrophils assessed as remaining enzyme activity by measuring 5-LO product formation at 1 uM preincubated for 15 mins followed by A23187 and arachidonic acid addition and measured after 10 mins by UV based RP-HPLC analysis (reference value: 100%)
measurement-label: Activity (%)

(1) CC(C)Cc1ccc(C(C)c2nc3cc(-c4noc(=O)[nH]4)ccc3n2Cc2ccccc2Cl)cc1 (stereo not given)
(2) N#Cc1ccc2c(c1)nc(CCc1ccc(-c3cnc(N)nc3)cc1)n2Cc1ccccc1Cl
(3) CC(C)CCc1ccc(C(C)c2nc3cc(C#N)ccc3n2Cc2ccccc2Cl)cc1 (stereo not given)
-- ask Could you list the above compounds by Activity, going from the biggest number down? Answer format: list of labels, ordered as asked.
-- reply 3, 2, 1
(3: 87.2%, 2: 8.3%, 1: 0.67%)

(a) CC(C)Cc1ccc(C(C)c2nc3cc(-c4n[nH]c(=O)o4)ccc3n2Cc2ccccc2Cl)cc1 (stereo not given)
(b) N#Cc1ccc2c(c1)nc(NCc1ccc3[nH]ccc3c1)n2Cc1ccccc1Cl
-- ask Form: Entry with minimum Activity (choose one): a / b Give the chosen item's label as your response.
-- reply a
(a: 0.5%, b: 84.7%)
